TARGET_SYSTEM: Tyrosine-protein phosphatase non-receptor type 1 (Homo sapiens)
Sequence (P18031 whole entry): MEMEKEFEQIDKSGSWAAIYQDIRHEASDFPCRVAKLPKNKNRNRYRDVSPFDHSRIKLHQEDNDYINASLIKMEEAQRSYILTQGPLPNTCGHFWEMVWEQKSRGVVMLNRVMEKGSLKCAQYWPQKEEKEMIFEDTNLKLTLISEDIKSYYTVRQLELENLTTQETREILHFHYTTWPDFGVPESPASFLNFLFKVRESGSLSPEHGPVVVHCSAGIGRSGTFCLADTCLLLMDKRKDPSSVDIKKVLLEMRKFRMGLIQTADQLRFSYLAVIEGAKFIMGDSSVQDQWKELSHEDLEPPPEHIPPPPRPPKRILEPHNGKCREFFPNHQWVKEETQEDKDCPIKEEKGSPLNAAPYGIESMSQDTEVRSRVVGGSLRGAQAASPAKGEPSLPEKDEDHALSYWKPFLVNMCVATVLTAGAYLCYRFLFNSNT
ASSAY_DETAILS: Inhibition of human recombinant PTP1B using pNPP as substrate assessed as rate of hydrolysis incubated for 10 mins prior to substrate addition measured after 30 mins by microplate reader analysis
// IC50 lookup, one value per entry

[
  {
    "MOLECULE": "C=C1CC[C@@H]2C(C)(C)CCC[C@@]2(C)[C@@H]1CC/C(C)=C/Cn1c[n+](C)c2ncnc(N)c21 [AGELASINE D]",
    "IC50": "> 24 µM"
  },
  {
    "MOLECULE": "CC1=CC(=O)C[C@H]2[C@](C)(CC/C(C)=C/C[n+]3cn(C)c4ncnc(N)c43)[C@@H](C)CC[C@@]12C",
    "IC50": "> 23 µM"
  },
  {
    "MOLECULE": "CC1=CC(=O)C[C@@H]2[C@@](C)(CC/C(C)=C/C[n+]3cn(C)c4ncnc(N)c43)[C@H](C)CC[C@@]12C",
    "IC50": "> 23 µM"
  },
  {
    "MOLECULE": "C/C(=C\\Cn1c[n+](C)c2ncnc(N)c21)CC[C@]1(C)[C@@H](C)CC[C@@]2(C)C(COC(=O)c3cc(Br)c[nH]3)=CCC[C@@H]12",
    "IC50": "15 µM"
  },
  {
    "MOLECULE": "C/C(=C\\Cn1c[n+](C)c2ncnc(N)c21)CC[C@]1(C)[C@@H](C)CC[C@@]2(C)C(COC(=O)c3ccc[nH]3)=CCC[C@@H]12 [AGELINE B]",
    "IC50": "> 19 µM"
  },
  {
    "MOLECULE": "C=C1CCCC(C)(C)[C@H]1CC/C(C)=C/CC/C(C)=C/C[n+]1cn(C)c2ncnc(N)c21",
    "IC50": "> 24 µM"
  },
  {
    "MOLECULE": "CC1=CCC[C@H]2[C@](C)(CC/C(C)=C/Cn3c[n+](C)c4ncnc(N)c43)[C@@H](C)CC[C@@]12C [AGELASINE A]",
    "IC50": "> 24 µM"
  },
  {
    "MOLECULE": "CC1=CCC[C@@H]2[C@@](C)(CC/C(C)=C/Cn3c[n+](C)c4ncnc(N)c43)[C@H](C)CC[C@@]12C [AGELASINE B]",
    "IC50": "> 24 µM"
  },
  {
    "MOLECULE": "CC1=CCC[C@H](C)[C@@]1(C)CCC(C)(O)CCC/C(C)=C/C[n+]1cn(C)c2ncnc(N)c21 (stereo partly specified)",
    "IC50": "> 23 µM"
  },
  {
    "MOLECULE": "CC1=CCC[C@H](C)[C@@]1(C)CC/C(C)=C/CC/C(C)=C/Cn1c[n+](C)c2ncnc(N)c21 [AGELINE A]",
    "IC50": "> 24 µM"
  }
]

For the next question, use this molecule.
What measured IC50 goes with CC1=CC(=O)C[C@H](C)[C@@]1(C)CC/C(C)=C/CC/C(C)=C/C[n+]1cn(C)c2ncnc(N)c21 ?
> 23 µM
